- Assay Info: ATG_NFI_CIS: Attagene CIS-FACTORIAL HepG2 Assay for human Nuclear Factor I (NFI) (AID 2282989)
- Test Settings: HepG2 cis-regulatory reporter, NFI response element transcription; actives raise or lower the signal
Active and inactive are the calls of the source. The calls were made as follows: active = hit-call score of the fitted dose curve at least 0.9, where 1 is the maximum; inactive = score below 0.9.
Measurement Label: outcome

Consider the reported outcome for these compounds:
{"columns": ["Compound", "outcome"],
 "data": [
  ["CON=C(C(=O)OC)c1ccccc1CON=C(C)c1cccc(C(F)(F)F)c1", "inactive"],
  ["CNC(=O)ON=C(SC)C(=O)N(C)C", "inactive"],
  ["CC1=NNC(=O)N(/N=C/c2cccnc2)C1", "inactive"],
  ["CCNc1nc(Cl)nc(NC(C)(C)C#N)n1", "inactive"],
  ["CC(COc1ccc(Oc2ccccc2)cc1)Oc1ccccn1 (stereo not drawn)", "inactive"],
  ["CC1(C(=O)Nc2ccc(O)c(Cl)c2Cl)CCCCC1", "inactive"]
]}

Task item: Read the entry CCOP(=O)(SC(C)CC)N1CCSC1=O (stereo not drawn) and write its reported outcome.
Reply: inactive

Task item: Read the entry `CC(=NC#N)N(C)Cc1ccc(Cl)nc1` and write its reported outcome.
Reply: inactive

Task item: Read the entry CCOP(=O)(NC(C)C)Oc1ccc(SC)c(C)c1 (stereo not drawn) and write its reported outcome.
Reply: inactive

Task item: Read the entry `Cc1nn(-c2cc(NS(C)(=O)=O)c(Cl)cc2Cl)c(=O)n1C(F)F` and write its reported outcome.
Reply: inactive

Task item: Read the entry `CCCOCC(=Nc1ccc(Cl)cc1C(F)(F)F)n1ccnc1` and write its reported outcome.
Reply: inactive

Task item: Read the entry CCOP(=S)(Oc1cnc(C(C)(C)C)nc1)OC(C)C (stereo not drawn) and write its reported outcome.
Reply: inactive

Task item: Read the entry `CCOP(=S)(OCC)SCCSCC` and write its reported outcome.
Reply: inactive
